# ASSAYED SYSTEM: human CTLA-4 expressed on the cell surface (human, UniProt P16410 36-223)
# Sequence (P16410 36-223 limits assumed): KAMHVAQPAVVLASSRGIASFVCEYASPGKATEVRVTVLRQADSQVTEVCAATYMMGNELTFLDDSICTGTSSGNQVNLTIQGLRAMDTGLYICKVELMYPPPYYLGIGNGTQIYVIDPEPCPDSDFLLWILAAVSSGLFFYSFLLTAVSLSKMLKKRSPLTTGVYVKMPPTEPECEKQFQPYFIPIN
# TEST PROTOCOL: cell-based or functional assay
Each entry below carries its recorded Cell-based blocking activity max signal (RLU).
ENDPOINT LABEL: Cell-based blocking activity max signal (RLU)

BINDER	RECORDED MEASUREMENT
antibody A8 (L8H8) (antibody, V domains shown, also called aCTLA-4.1) VH: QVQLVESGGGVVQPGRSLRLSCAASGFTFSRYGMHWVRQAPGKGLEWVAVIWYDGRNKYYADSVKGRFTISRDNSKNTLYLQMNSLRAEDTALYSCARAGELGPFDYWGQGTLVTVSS VL: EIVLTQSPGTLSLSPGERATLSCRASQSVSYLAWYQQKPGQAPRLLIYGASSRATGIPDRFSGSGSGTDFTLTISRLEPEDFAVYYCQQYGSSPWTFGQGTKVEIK	349
antibody A1 (L1H1) (antibody, V domains shown, also called aCTLA-4.9; CTLA4.A1) VH: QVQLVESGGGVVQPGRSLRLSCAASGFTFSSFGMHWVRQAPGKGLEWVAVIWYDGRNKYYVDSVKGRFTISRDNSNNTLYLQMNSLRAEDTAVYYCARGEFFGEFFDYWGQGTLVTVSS VL: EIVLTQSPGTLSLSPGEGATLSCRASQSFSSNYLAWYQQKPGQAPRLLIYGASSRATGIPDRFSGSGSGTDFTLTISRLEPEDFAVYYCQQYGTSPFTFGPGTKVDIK	237
antibody A5 (L5H5) (antibody, V domains shown, also called aCTLA-4.28; CTLA4.A5) VH: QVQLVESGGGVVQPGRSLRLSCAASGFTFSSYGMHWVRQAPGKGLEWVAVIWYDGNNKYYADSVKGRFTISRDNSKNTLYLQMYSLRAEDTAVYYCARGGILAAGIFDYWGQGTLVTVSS VL: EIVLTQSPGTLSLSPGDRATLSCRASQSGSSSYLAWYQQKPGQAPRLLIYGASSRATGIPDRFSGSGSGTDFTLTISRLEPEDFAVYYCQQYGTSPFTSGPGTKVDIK	548
antibody A4 (L4H4) (antibody, V domains shown, also called aCTLA-4.29) VH: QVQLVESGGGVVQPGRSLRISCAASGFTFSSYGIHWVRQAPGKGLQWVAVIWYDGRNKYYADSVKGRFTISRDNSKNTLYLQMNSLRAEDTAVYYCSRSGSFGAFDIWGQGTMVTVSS VL: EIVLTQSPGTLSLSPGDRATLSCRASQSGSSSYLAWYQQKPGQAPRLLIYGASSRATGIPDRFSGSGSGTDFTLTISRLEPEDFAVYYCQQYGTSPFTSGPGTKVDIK	444

Origin of the recorded values: patent US20230265192A1
